# System: MDA-MB-231 cells
# Protocol Summary: In vitro anti-proliferative activity assay (MTT)
# Type: cell-based
# Run Parameters: Homo sapiens, 48 h incubation
Overview of reported IC50 across a group of compounds:
Enter your answer as a number in µM; do not include the unit.

Example entries begin here.
Ask | Reported IC50 for N#CC1=C(c2ccc(Cl)cc2)Nc2c(c(-c3cccs3)nn2-c2ccccc2)C12C(=O)Nc1ccc(Br)cc12 (stereo not shown) : what is it?
Reply | 30.6

Ask | Record: COc1ccc2c(c1)C1(C(=O)N2)C(C#N)=C(c2ccccc2)Nc2c1c(-c1cccs1)nn2-c1ccccc1 (stereo not shown)
Reply | 17.5

Ask | COc1ccc(C2=C(C#N)C3(C(=O)Nc4ccc(Br)cc43)c3c(-c4cccs4)nn(-c4ccccc4)c3N2)cc1 (stereo not shown) ?
Reply | 12.7

Ask | N#CC1=C(c2ccccc2)Nc2c(c(-c3cccs3)nn2-c2ccccc2)C12C(=O)Nc1ccccc12 (stereo not shown) , same question.
Reply | 6.7

Okay, next one:
Ask | Value lookup for IC50; key = N#CC1=C(c2ccc(Cl)cc2)Nc2c(c(-c3cccs3)nn2-c2ccccc2)C12C(=O)Nc1ccccc12 (stereo not shown)
Reply | 12
